Give measured Km for each item. Keep answers brief.
# System: [^3H]dUMP-labelled DNA
# method: Kinetic parameters on uracil substrate
# Type: biochemical
# condition_info: U-ds substrate
Give bare numbers, in µM.

Some solved cases for reference:
# molecule, Km, µM
rows = [
    ("Asn204Gln: human UDG (UNGΔ84) mutant with Asn204 replaced by Gln (protein) MGVFCLGPWGLGRKLRTPGKGPLQLLSRLCGDHLQAIPAKKAPAGQEEPGTPPSSPLSAEQLDRIQRNKAAALLRLAARNVPVGFGESWKKHLSGEFGKPYFIKLMGFVAEERKHYTVYPPPHQVFTWTQMCDIKDVKVVILGQDPYHGPNQAHGLCFSVQRPVPPPPSLENIYKELSTDIEDFVHPGHGDLSGWAKQGVLLLQAVLTVRAHQANSHKERGWEQFTDAVVSWLNQNSNGLVFLLWGSYAQKKGSAIDRKRHHVLQTAHPSPLSVYRGFFGCRHFSKTNELLQKSGKKPIDWKEL", 0.4),
    ("Tyr147Ala (protein) MGVFCLGPWGLGRKLRTPGKGPLQLLSRLCGDHLQAIPAKKAPAGQEEPGTPPSSPLSAEQLDRIQRNKAAALLRLAARNVPVGFGESWKKHLSGEFGKPYFIKLMGFVAEERKHYTVYPPPHQVFTWTQMCDIKDVKVVILGQDPAHGPNQAHGLCFSVQRPVPPPPSLENIYKELSTDIEDFVHPGHGDLSGWAKQGVLLLNAVLTVRAHQANSHKERGWEQFTDAVVSWLNQNSNGLVFLLWGSYAQKKGSAIDRKRHHVLQTAHPSPLSVYRGFFGCRHFSKTNELLQKSGKKPIDWKEL", 3.5),
]

Given Asn204Asp: human UDG mutant, codon 204 Asn changed to Asp; cytosine-DNA glycosylase (CDG) (protein) MGVFCLGPWGLGRKLRTPGKGPLQLLSRLCGDHLQAIPAKKAPAGQEEPGTPPSSPLSAEQLDRIQRNKAAALLRLAARNVPVGFGESWKKHLSGEFGKPYFIKLMGFVAEERKHYTVYPPPHQVFTWTQMCDIKDVKVVILGQDPYHGPNQAHGLCFSVQRPVPPPPSLENIYKELSTDIEDFVHPGHGDLSGWAKQGVLLLDAVLTVRAHQANSHKERGWEQFTDAVVSWLNQNSNGLVFLLWGSYAQKKGSAIDRKRHHVLQTAHPSPLSVYRGFFGCRHFSKTNELLQKSGKKPIDWKEL , state its recorded Km.
2.4

The measured values listed here are drawn from patent US6713294B1.
